I'd appreciate it if you could supply Z Repl 2 values for the items below.
# SYSTEM NAME: tau (Homo sapiens)
# Sequence (P10636 623-695 limits assumed): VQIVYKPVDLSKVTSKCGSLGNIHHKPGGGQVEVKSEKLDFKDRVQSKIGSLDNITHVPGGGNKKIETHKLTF
# ASSAY INFO: MCE Phenols Library screening, tau biosensor cell seeding assay (AvZ)
# Format: cell-based
# CONDITION: Z score, replicate 2
Give bare numbers.

Please review the entries below; each comes with its answer.
COMPOUND: COc1c2ccoc2nc2c(O)cccc12
Z Repl 2: 0.728
--
COMPOUND: COc1ccc(-c2cc(=O)c3c(O)c(OC)c(O)cc3o2)cc1OC
Z Repl 2: 0.288
--
COMPOUND: CCOC(=O)c1cc(O)c(O)c(O)c1 [Ethyl gallate]
Z Repl 2: -1.15
--
COMPOUND: Cc1cc(=O)oc2cc(O)c(O)cc12
Z Repl 2: -0.022
--
COMPOUND: COc1c(CC=C(C)C)c(O)cc2oc(=O)c(-c3ccc(O)cc3O)cc12
Z Repl 2: 0.821
--
COMPOUND: O=C1C[C@@H](c2ccc(O)c(O)c2)Oc2c1ccc(O[C@@H]1O[C@H](CO)[C@@H](O)[C@H](O)[C@H]1O)c2O
Z Repl 2: -0.498
--
COMPOUND: O=C(CCc1ccc(O)cc1)c1c(O)cc(O)cc1O
Z Repl 2: -0.477
--
COMPOUND: COc1cc(/C=C/C(=O)O[C@H]2[C@H](O)C[C@](O)(C(=O)O)C[C@H]2O)ccc1O
Z Repl 2: -0.646
--
COMPOUND: O=C(/C=C/c1ccc(O)c(O)c1/C=C/c1ccc(O)c(O)c1)O[C@H](Cc1ccc(O)c(O)c1)C(=O)O
Z Repl 2: -1.185
--
COMPOUND: COc1cc2c(cc1O)CC[n+]1cc3c(OC)c(OC)ccc3cc1-2.[Cl-] [Jatrorrhizine (chloride)]
Z Repl 2: -0.062

For each listed entry, give its Z Repl 2.
1. COc1cc(/C=C/C(=O)O[C@H]2[C@H](O)[C@@H](CO)O[C@@]2(CO)O[C@H]2O[C@H](COC(=O)c3ccc(O)cc3)[C@@H](O)[C@H](O)[C@H]2O)cc(OC)c1O [Tenuifoliside B]
2. COc1cc(CC(C)C(C)Cc2ccc(O)c(OC)c2)ccc1O (centres unmarked) [Dihydroguaiaretic acid]
3. CC(=O)c1c(C)cc2cccc(O)c2c1O
4. CCc1cccc(C)c1O

RESULT:
-0.01
-0.625
0.129
-0.011
